test target: T1, 4H3697-AA
T1 chain: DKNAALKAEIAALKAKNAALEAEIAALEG
assay text: two-hybrid library CCmax;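 further: natural log of median RNA to DNA barcode read ratio; higher means stronger binding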
reported conditions: mean of both orientations
experimental readout: interaction score

INSERT INTO measurements (binder, value_measured) VALUES
  ('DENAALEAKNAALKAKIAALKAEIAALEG [4H1513-AA]', -2.13),
  ('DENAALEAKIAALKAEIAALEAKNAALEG [4H1351-AA]', -1.37);

A = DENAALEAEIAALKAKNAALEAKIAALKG [4H1142-AA]
B = DKNAALKAEIAALEAEIAALEAENAALKG [4H3588-AA]
## Task // select label with min value of measured interaction score from [ A , B ] Returns: label corresponding to the selected item.
## Result B
(B: -2.28, A: 2.08)
